- TARGET_OR_TEST_SYSTEM: T1, HHLA2 (B7-H7)
- T1 construct: coated protein in the ELISA; also called HHLA2-Fc (R&D Systems)
- T1 chain: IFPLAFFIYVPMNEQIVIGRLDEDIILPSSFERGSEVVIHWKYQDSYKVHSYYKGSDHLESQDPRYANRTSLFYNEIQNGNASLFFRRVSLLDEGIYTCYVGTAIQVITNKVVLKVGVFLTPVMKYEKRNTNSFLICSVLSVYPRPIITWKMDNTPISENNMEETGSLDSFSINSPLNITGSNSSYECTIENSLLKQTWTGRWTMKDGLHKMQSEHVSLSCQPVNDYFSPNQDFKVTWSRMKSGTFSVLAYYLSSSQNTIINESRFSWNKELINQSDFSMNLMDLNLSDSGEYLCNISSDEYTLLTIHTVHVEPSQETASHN
- METHOD: ELISA on coated HHLA2-Fc, 150 ng IgG1; None 0.087
For each entry below, report its ELISA Absorbance (405 nm-570 nm) value.
The reply should be a number, written without any unit.

Can you look up the measured ELISA Absorbance (405 nm-570 nm) of HW-8 chimeric rabbit-human IgG1 LA/LA/PG (antibody, V domains shown, Fc-silenced (L234A/L235A/P329G) IgG1, kappa; Alexa Fluor 647-labeled in single-step flow cytometry; Cluster C-45) VH: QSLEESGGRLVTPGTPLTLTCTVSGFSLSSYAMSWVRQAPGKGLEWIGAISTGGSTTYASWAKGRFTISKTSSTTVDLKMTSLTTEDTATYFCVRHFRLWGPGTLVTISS VL: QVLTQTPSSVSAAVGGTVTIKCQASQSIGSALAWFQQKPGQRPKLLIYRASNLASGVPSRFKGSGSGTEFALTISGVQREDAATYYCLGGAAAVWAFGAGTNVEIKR for me?
0.073

Can you look up the measured ELISA Absorbance (405 nm-570 nm) of HW-1 chimeric rabbit-human IgG1 LA/LA/PG (antibody, V domains shown, Fc-silenced (L234A/L235A/P329G) IgG1, lambda; Alexa Fluor 647-labeled in single-step flow cytometry; Prototype of cluster C-1) VH: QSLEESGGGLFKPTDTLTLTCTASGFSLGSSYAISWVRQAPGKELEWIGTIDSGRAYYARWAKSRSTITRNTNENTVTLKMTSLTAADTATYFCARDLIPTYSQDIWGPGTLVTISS VL: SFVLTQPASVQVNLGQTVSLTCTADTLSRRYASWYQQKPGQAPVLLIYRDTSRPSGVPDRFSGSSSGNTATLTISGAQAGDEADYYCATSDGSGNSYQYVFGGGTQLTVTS for me?
0.075

Can you look up the measured ELISA Absorbance (405 nm-570 nm) of HW-70 chimeric rabbit-human IgG1 LA/LA/PG (antibody, V domains shown, Fc-silenced (L234A/L235A/P329G) IgG1, lambda; Alexa Fluor 647-labeled in single-step flow cytometry; Cluster C-1) VH: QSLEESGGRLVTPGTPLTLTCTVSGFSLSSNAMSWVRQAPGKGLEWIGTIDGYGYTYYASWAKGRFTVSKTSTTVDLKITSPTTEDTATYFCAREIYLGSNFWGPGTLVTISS VL: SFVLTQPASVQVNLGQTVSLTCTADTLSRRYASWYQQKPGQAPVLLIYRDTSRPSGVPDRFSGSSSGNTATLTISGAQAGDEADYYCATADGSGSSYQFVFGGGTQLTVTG for me?
0.088

Can you look up the measured ELISA Absorbance (405 nm-570 nm) of HW-25 chimeric rabbit-human IgG1 LA/LA/PG (antibody, V domains shown, Fc-silenced (L234A/L235A/P329G) IgG1, lambda; Alexa Fluor 647-labeled in single-step flow cytometry; Cluster C-1) VH: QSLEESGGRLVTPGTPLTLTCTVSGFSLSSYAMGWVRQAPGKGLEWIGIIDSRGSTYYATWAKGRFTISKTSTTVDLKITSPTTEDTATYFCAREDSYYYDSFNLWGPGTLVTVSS VL: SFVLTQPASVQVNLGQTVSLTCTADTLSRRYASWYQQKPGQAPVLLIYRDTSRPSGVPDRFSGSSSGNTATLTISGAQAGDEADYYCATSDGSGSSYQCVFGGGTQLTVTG for me?
0.066

Can you look up the measured ELISA Absorbance (405 nm-570 nm) of HW-97 chimeric rabbit-human IgG1 LA/LA/PG (antibody, V domains shown, Fc-silenced (L234A/L235A/P329G) IgG1, lambda; Alexa Fluor 647-labeled in single-step flow cytometry; Prototype of cluster C-97) VH: QKQLVESGGRLVTPGTPLTLTCTVTGIDLSSHGMSWVRQAPGKGLEWIGVIYPSGSTWYASWARGRFTISKTSTTVDLKMTSLTTEDTATHFCARGDVGGADNNIWGPGTLVTVSS VL: SFVLTQPASVQVDLGQTVSLTCTAETLSRSYASWYQQKPGQAPVLLIYRDTSRPSGVPDRFSGSSSGNTATLTISGAQAGDEADYYCATSDGSGSSYQYVFGGGTQLTVTG for me?
0.079
